- assay-info: Selectivity index, ratio of IC50 for African green monkey Vero C1008 cells to MIC for Mycobacterium tuberculosis H37Rv
- Type: toxicity, cell-based
- stated-conditions: read-out: Selectivity Index
parameter: selectivity ratio

Quick one: selectivity ratio for COc1ccccc1C(c1ccc(OCCN2CCCCCC2)cc1)c1cccs1 (stereo unspecified) ?
< 10

Another molecule to look at: CCN(CC)CCOc1ccc(C(c2cccc(F)c2)c2cccs2)cc1 (stereo unspecified)
< 10

From here, focus on the item given below.
# input molecule: CSc1ccc(C(c2ccc(OCCN(C(C)C)C(C)C)cc2)c2cccs2)cc1 (stereo unspecified) ; wanted: its selectivity ratio
> 10

* * *

Examples of compounds with documented selectivity ratio follow.
- assay-info: Selectivity index, ratio of IC50 for African green monkey Vero C1008 cells to MIC for Mycobacterium tuberculosis H37Rv
- Assay type: toxicity, cell-based
- stated-conditions: read-out: Selectivity Index

Dear colleague, I am looking for the recorded selectivity ratio of the following compound: c1ccc(C(c2ccc(OCCN3CCCCCC3)cc2)c2cccs2)cc1 (stereo not drawn)
< 10

Next up: COc1ccc(C(c2ccc(OCCN(C(C)C)C(C)C)cc2)c2cccs2)cc1 (stereo not drawn)
> 10

More entries:
I would be grateful if you could share the reported selectivity ratio for Fc1ccccc1C(c1ccc(OCCN2CCCCC2)cc1)c1cccs1 (stereo not drawn) .
< 10
